target: T1, GFP-9S library array, motif 4 ND N98V;D124E (synthetic construct, N98V;D124E)
T1 chain: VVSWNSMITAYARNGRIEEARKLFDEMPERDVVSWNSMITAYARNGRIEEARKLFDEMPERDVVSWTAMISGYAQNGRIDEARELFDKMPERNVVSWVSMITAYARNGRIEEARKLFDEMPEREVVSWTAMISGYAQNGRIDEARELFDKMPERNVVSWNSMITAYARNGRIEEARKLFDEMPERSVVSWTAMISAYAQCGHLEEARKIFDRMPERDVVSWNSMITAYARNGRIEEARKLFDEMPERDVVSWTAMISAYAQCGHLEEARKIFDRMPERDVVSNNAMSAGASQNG
test method notes: high-throughput RNA pulldown from lysate on Ni-NTA beads; HRP: 50 mM Tris pH 8, 150 mM NaCl, 1 mM beta-mercaptoethanol, 50 ug/ml BSA, 3 ug/ml yeast RNA, 0.5% heparin; ITC and FP: Tris pH 8, 200 mM KCl, 5% glycerol; MST: 50 mM Tris pH 8, 200 mM NaCl, 1 mM DTT, BSA, heparin, 0.05% Tween 20
measurement parameters: tags: N-terminal His-eGFP; label: 5' Cy5
Measured Kd values are reported for all entries that follow.
attribute measured: Kd (nM)

                             binder  unit_annotation  assay_value
0    AUUACACGUGA (ssRNA) [Cy5-rpoA]               nM          287
1  AUUAGACGUGA (ssRNA) [Cy5-rpoA-G]               nM          167
